Hello, the source for this data is patent US20150105252A1, in case you need it.

- Test system: foxtail, giant
- method summary: Test A postemergence
- Type: in vivo, Setaria faberii
- setup conditions: postemergence, 125 g ai/ha, about 10 days, visual rating on 0 to 100 scale (0 no effect, 100 complete control)
measured property: Foxtail, Giant plant response rating
Answer as a number with no unit attached.

Q: Checklist item: Foxtail, Giant plant response rating tested on foxtail, giant, entry `CCc1cc(C(=O)NCC(F)(F)F)nn1Cc1ccnc(OCC(F)(F)F)c1` , value?
Result: 50

Q: Checklist item: Foxtail, Giant plant response rating tested on foxtail, giant, entry `CCCNC(=O)c1cc(I)n(Cc2cccc(C(F)(F)F)c2)n1` , value?
Result: 10

Q: Checklist item: Foxtail, Giant plant response rating tested on foxtail, giant, entry `CCc1cc(-c2ccc(C(F)(F)F)cc2)nn1Cc1nc(C(F)(F)F)nn1C` , value?
Result: 30

Q: Checklist item: Foxtail, Giant plant response rating tested on foxtail, giant, entry `CCc1cc(C(=O)NCC(F)(F)F)nn1Oc1cccc(C(F)(F)F)n1` , value?
Result: 0

Q: Checklist item: Foxtail, Giant plant response rating tested on foxtail, giant, entry `CCCCc1cc(C(=O)NCCC)nn1Cc1ccnc(C(F)(F)F)c1` , value?
Result: 20

----------
- System: pigweed
- method summary: Test A preemergence
- Assay type: in vivo, Amaranthus retroflexus
- setup conditions: preemergence, 125 g ai/ha; visual injury, 0 to 100 scale, approx. 10 days
Give Pigweed plant response rating for every item shown.
Answer as a number with no unit attached.

Q: Checklist item: Pigweed plant response rating tested on pigweed, entry `CCONC(=O)c1cc(CC)n(Cc2cc(C(F)(F)F)nn2CC)n1` , value?
Result: 100

Q: Checklist item: Pigweed plant response rating tested on pigweed, entry `Cc1cc(C(=O)NC2CC2)nn1Cc1cc(F)cc(C(F)(F)F)c1` , value?
Result: 100

Q: Checklist item: Pigweed plant response rating tested on pigweed, entry `CCc1cc(C(=O)NOC(C)(C)CC)nn1Cc1cccc(OC(F)(F)F)c1` , value?
Result: 80

Q: Checklist item: Pigweed plant response rating tested on pigweed, entry `CCCNC(=O)c1cc(CC)n(Cc2cc(OC(F)F)nn2C)n1` , value?
Result: 20

Q: Checklist item: Pigweed plant response rating tested on pigweed, entry `CCONC(=O)c1cc(C)n(Cc2cccc(OC(F)(F)F)c2)n1` , value?
Result: 90

Q: Checklist item: Pigweed plant response rating tested on pigweed, entry `O=C(NCC(F)(F)F)c1cc(CCCl)n(Cc2ccnc(C(F)(F)F)c2)n1` , value?
Result: 100

Q: Checklist item: Pigweed plant response rating tested on pigweed, entry `CCc1cc(C(=O)NCC(F)(F)F)nn1Cc1ccnc(C(F)(F)F)c1` , value?
Result: 100

Q: Checklist item: Pigweed plant response rating tested on pigweed, entry `CCOc1cc(C(=O)NCC(F)(F)F)nn1Cc1ccnc(C(F)(F)F)c1` , value?
Result: 100

Q: Checklist item: Pigweed plant response rating tested on pigweed, entry `CCc1cc(-c2ccc(Br)cc2)nn1Cc1ccnc(C(F)(F)F)c1` , value?
Result: 0

Q: Checklist item: Pigweed plant response rating tested on pigweed, entry `CCc1cc(C(=O)NCC(F)(F)F)nn1Oc1ccnc(C(F)(F)F)c1` , value?
Result: 50

Q: Checklist item: Pigweed plant response rating tested on pigweed, entry `CCCCNC(=O)c1cc(CC)n(Oc2ccnc(C(F)(F)F)c2)n1` , value?
Result: 0

Q: Checklist item: Pigweed plant response rating tested on pigweed, entry `CCc1cc(C(=O)NOC(C)C)nn1Cc1ccnc(C(F)(F)F)c1` , value?
Result: 100
